Measured IC50 of individual entries
# Tested on: IR-induced senescent WI-38 cells (SC)
# procedure-details: Cell viability (PI flow cytometry), LD50 in IR-induced senescent WI-38 cells
# Assay type: cell-based, human
# protocol-conditions: Homo sapiens, WI-38, read-out: LD50 (μM) for senescent cells (SC)
Peptide text beside a SMILES is read from it. * marks the point of attachment. Cbz = O=C(OCc1ccccc1)*
result-type: IC50 (µM)

molecule	test-result
CCCCCCCCCC[P+](c1ccccc1)(c1ccccc1)c1ccccc1	0.98
CS[C@H]1SC[C@H]2C(=O)N(C)[C@@H](C(C)C)C(=O)OC[C@@H](NC(=O)c3cnc4ccccc4n3)C(=O)N[C@@H](C)C(=O)N(C)[C@@H]1C(=O)N(C)[C@@H](C(C)C)C(=O)OC[C@@H](NC(=O)c1cnc3ccccc3n1)C(=O)N[C@@H](C)C(=O)N2C	2.86
C=CCNc1c(O)cc2c(O)c1C[C@@H](C)C[C@H](OC)[C@H](O)[C@@H](C)/C=C(\C)[C@H](OC(N)=O)[C@@H](OC)/C=C\C=C(/C)C(=O)N2	0.93
CC(C)C[C@@H](C=O)NC(=O)[C@H](CC(C)C)NC(=O)[C@H](CC(C)C)NC(=O)OCc1ccccc1 [MG132] (Cbz-Leu-Leu-Leu-aldehyde)	1.92
